Target: Tyk2 kinase domain (DH1) (Homo sapiens (Human), UniProt P29597)
Sequence (P29597 897-1176): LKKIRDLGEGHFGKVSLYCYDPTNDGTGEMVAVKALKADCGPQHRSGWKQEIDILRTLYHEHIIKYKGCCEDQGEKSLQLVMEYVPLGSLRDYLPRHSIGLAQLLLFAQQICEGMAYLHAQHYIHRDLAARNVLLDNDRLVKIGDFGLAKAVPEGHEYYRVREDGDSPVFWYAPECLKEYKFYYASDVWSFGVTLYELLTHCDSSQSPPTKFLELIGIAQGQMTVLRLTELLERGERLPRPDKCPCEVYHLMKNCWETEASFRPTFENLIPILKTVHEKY
Assay: Tyk2 Radioactive Kinase Assay
Format: biochemical
Settings: compound at 10 μM; ATP 10 μM; read-out: Tyk2 JH1% Inhibition @ 10 μM
Please provide measured inhibition at 10 µM for the entries that follow.

Completed entries (count: 5):
MOLECULE	inhibition at 10 µM
CNc1cc(Nc2cccn(-c3ccc(OC)cn3)c2=O)nc2c(C(=O)N[C@H]3C[C@H]3F)cnn12 [I-265]	< 50%
CNc1cc(Nc2cccc([C@@H]3CCCOC3)n2)nc2c(C(=O)N[C@@H]3CC[C@H]3O)cnn12 [I-665]	< 50%
CNc1cc(-c2cn(C(C)C)c3ncccc23)nc2c(C(=O)N[C@@H]3C[C@H]3O)cnn12 (stereo in doubt) [I-653]	< 50%
CNc1cc(Nc2cccn([C@H]3CCCOC3)c2=O)nc2c(C(=O)N[C@@H]3CC[C@@H](O)C3)cnn12 [I-729]	< 50%
CNc1cc(Nc2cccn([C@H]3CC[C@](C)(OC)CC3)c2=O)nc2c(C(=O)N[C@@H]3CC[C@@H]3O)cnn12 [I-670]	< 50%

List the reported inhibition at 10 µM of each molecule below.
1. CC(C)Oc1ncccc1Nc1cc(N)n2ncc(C(N)=O)c2n1 [I-77]
2. CNc1cc(-c2nn(C3CCOCC3)c3ncccc23)nc2c(C(=O)N[C@@H]3C[C@@H]3F)cnn12 (stereo in doubt) [I-450]
3. CNc1cc(Nc2cccn(-c3cc(C)on3)c2=O)nc2c(C(=O)NC3CC3)cnn12 [I-162]
4. CNc1cc(Nc2cccn(-c3nc(C)co3)c2=O)nc2c(C(=O)N[C@@H]3CC[C@H]3O)cnn12 [I-768]
5. CNc1cc(Nc2cccn(C3CCN(CC(F)F)CC3)c2=O)nc2c(C(=O)N[C@H]3C[C@H]3F)cnn12 [I-230]
6. CNc1cc(Nc2cccn(-c3ccnn3C)c2=O)nc2c(C(=O)NC3CCC3)cnn12 [I-328]
7. CNc1cc(Nc2cccn([C@@H]3CCCOC3)c2=O)nc2c(C(=O)N[C@H]3CCC[C@H](O)C3)cnn12 [I-703]

result:
< 50%
< 50%
< 50%
< 50%
< 50%
< 50%
< 50%

List the reported inhibition at 10 µM of each molecule below.
1. CNc1cc(Nc2cccc([C@@H]3CCCOC3)n2)nc2c(C(=O)N[C@H]3C[C@H]3F)cnn12 [I-562]
2. CNc1cc(Nc2cccn3cnnc23)nc2c(C(=O)NC3CC3)cnn12 [I-659]
3. CNc1cc(Nc2cccnc2OC)nc2c(C(=O)N[C@H]3COC[C@H]3O)cnn12 [I-615]
4. CNc1cc(Nc2cccn(CCOC3CC3)c2=O)nc2c(C(=O)N[C@H]3CC[C@@H]3O)cnn12 [I-514]

result:
1: < 50%; 2: < 50%; 3: < 50%; 4: < 50%

====

Molecular target: human TYK2 (JH2domain-pseudokinase) (Homo sapiens (Human), UniProt P29597)
Sequence (P29597 556-888): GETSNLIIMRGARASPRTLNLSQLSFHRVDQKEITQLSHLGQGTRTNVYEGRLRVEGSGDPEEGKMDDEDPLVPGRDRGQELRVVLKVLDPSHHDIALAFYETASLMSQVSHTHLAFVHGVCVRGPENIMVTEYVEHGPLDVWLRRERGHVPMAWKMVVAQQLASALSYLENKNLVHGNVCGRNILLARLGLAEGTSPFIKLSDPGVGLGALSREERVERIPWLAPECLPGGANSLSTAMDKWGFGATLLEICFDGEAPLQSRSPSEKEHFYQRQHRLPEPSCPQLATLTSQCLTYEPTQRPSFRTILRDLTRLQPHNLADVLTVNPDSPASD
Assay: TYK2 JH2 Domain Binding Assay (KINOMEscan)
Experimental: Binding constants for compounds of the present invention against the JH2 domain were determined by the following protocol for a KINOMEscan® assay (DiscoveRx). […] The TYK2 (JH2domain-pseudokinase) fusion protein was labeled with a chimeric double-stranded DNA tag containing the NFkB binding site (5′-[…]-3′) fused to an amplicon for qPCR readout, which was added directly to the expression extract (the final concentration of DNA-tag in the binding reaction is 0.1 nM). […]
Please provide measured Kd for the entries that follow.

CNc1cc(Nc2cccn([C@H]3CC[C@@H](OC)CC3)c2=O)nc2c(C(=O)N[C@H]3CC[C@H]3O)cnn12 < 0.2 nM
CNc1cc(-c2cn(CCCO)c3ncc(F)cc23)nc2c(C(=O)N[C@@H]3CC[C@H]3OC)cnn12 < 0.2 nM
CNc1cc(Nc2cccn([C@@H]3CC[C@@H]3O)c2=O)nc2c(C(=O)N[C@@H]3C[C@@H]3F)cnn12 < 0.2 nM
CNc1cc(Nc2cccn(-c3ccccn3)c2=O)nc2c(C(=O)N[C@@H]3C[C@H]3OC)cnn12 < 0.2 nM

List the reported Kd of each compound below.
1. CNc1cc(Nc2cccc(-c3cn(C)nc3F)n2)nc2c(C(=O)N[C@H]3CC[C@H]3O)cnn12
2. CNc1cc(Nc2cccc(N3CCCC3=O)n2)nc2c(C(=O)NC3COC3)cnn12
3. CNc1cc(Nc2ccnn(-c3ccc(F)cc3)c2=O)nc2c(C(=O)N[C@H]3C[C@H]3F)cnn12
4. CNc1cc(Nc2cc(Cl)cn([C@H]3CCCOC3)c2=O)nc2c(C(=O)N[C@@H]3C[C@@H]3F)cnn12

result:
1: < 0.2 nM; 2: > 10 nM; 3: 0.2 to 1 nM; 4: < 0.2 nM
